Origin of measurements: patent US10660877B2

Entries and their measured IC50 follow.
target: human TLR8 (Homo sapiens (Human), UniProt Q9NR97); test: TLR8 inhibition reporter assay (HEK-Blue cells, SEAP reporter, R848 stimulation); details: read-out: TLR8 IC50, HEK-Blue cells overexpressing human TLR8, R848 15.9 μM;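 also: compounds tested from 0.05 nM to 50 µM, 22 h at 37 °C, SEAP measured with HEK-Blue Detection, inhibition relative to agonist plus DMSO versus a known inhibitor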
Sequence (Q9NR97 27-1041): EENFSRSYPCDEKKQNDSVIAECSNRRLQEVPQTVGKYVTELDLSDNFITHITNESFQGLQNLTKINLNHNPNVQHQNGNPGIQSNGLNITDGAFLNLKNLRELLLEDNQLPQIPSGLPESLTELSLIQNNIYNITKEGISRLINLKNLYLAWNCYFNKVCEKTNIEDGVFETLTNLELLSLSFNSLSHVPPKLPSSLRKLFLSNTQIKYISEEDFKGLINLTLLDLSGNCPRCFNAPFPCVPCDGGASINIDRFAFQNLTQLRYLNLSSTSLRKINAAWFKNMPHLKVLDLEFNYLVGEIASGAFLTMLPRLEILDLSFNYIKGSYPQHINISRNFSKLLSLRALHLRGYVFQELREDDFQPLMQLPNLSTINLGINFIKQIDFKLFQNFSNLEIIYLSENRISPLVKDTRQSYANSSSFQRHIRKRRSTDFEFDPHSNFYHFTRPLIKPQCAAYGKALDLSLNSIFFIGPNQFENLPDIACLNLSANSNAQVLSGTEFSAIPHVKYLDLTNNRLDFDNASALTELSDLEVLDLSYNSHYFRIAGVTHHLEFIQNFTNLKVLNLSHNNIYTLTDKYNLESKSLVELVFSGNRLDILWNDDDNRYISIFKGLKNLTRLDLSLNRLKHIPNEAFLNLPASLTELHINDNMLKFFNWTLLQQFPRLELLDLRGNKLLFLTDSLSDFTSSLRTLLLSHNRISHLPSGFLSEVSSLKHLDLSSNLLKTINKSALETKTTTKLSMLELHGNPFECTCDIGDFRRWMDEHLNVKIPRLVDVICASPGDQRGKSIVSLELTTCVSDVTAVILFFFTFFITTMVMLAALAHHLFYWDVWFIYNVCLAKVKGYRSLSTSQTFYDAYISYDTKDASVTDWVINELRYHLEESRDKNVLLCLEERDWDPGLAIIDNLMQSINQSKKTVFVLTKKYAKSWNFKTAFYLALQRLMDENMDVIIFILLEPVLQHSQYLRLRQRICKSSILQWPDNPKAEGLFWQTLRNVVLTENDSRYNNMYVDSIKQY
Numeric only. Scale: nM

Answered cases to consult:
Consider the compound Cc1cc(-c2[nH]c3ccc(C4CCN(C(=O)CCN(C)C)CC4)cc3c2C(C)C)cc(C)n1 and give its measured IC50.
5.9

Consider the compound Cc1cc(-c2[nH]c3ccc(C4CCN(C(=O)CN5CCC(C)CC5)CC4)cc3c2C(C)C)cc(C)n1 and give its measured IC50.
20.9

Consider the compound Cc1cc(-c2[nH]c3ccc(C4CCNCC4)cc3c2C(C)C)c(N)c(C)n1 and give its measured IC50.
18.8

Next:
Consider the compound CCc1c(-c2ccnc(OC)c2)[nH]c2ccc(C3CCN(C4CCN(C)CC4)CC3)cc12 and give its measured IC50.
1410

---

molecular target: human TLR9 (Homo sapiens (Human), UniProt Q9NR96); experiment: TLR9 inhibition reporter assay (HEK-Blue cells, SEAP reporter, ODN2006 stimulation); conditions: read-out: TLR9 IC50, HEK-Blue cells, ODN2006 5 nM
Sequence (Q9NR96 26-1032): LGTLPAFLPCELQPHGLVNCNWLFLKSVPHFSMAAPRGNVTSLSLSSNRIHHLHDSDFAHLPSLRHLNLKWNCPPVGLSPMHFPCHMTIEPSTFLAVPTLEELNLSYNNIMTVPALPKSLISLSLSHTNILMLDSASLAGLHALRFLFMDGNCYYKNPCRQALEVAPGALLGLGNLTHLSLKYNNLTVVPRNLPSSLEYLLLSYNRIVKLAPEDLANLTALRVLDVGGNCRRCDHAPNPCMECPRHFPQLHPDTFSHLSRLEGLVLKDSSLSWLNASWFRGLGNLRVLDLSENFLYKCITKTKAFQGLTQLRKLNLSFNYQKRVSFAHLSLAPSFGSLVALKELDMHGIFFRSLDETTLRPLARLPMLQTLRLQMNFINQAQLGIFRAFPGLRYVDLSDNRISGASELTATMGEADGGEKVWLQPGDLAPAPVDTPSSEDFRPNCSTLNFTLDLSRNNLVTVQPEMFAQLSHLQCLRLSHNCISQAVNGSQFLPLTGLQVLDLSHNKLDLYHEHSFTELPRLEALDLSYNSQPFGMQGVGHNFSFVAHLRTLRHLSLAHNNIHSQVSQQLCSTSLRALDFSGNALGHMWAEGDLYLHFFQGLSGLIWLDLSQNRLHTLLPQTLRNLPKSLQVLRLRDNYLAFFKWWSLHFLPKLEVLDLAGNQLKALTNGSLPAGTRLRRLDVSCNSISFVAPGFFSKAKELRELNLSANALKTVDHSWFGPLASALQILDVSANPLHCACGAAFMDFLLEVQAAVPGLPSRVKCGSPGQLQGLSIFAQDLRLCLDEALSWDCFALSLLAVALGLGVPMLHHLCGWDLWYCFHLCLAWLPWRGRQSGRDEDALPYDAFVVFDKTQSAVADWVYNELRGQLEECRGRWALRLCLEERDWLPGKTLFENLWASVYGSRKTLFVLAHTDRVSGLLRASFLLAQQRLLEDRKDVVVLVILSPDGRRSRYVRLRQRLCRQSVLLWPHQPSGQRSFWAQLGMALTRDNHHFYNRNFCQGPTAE
pIC50: −log10 of the molar value.
Classify as follows. Reported pIC50 greater than or equal to 6: 1 (yes). Reported pIC50 below: 0 (no).

Entry Cc1nccc(-c2[nH]c3ccc(C4CCN(C5CCN(C(C)C)CC5)CC4)cc3c2C)c1C : is its pIC50 no less than 6?
1 (yes)

Entry CCN1CCC(N2CCC(c3ccc4[nH]c(-c5ccnc(OC)c5)c(C)c4c3)CC2)CC1 : is its pIC50 no less than 6?
0 (no)

Entry Cc1cc(-c2[nH]c3ccc(C4CCN(C5CCN(C(C)C)CC5)CC4)cc3c2C)c(C)cn1 : is its pIC50 no less than 6?
1 (yes)

Entry Cc1cc(-c2[nH]c3ccc(C4CCN(CC(C)(C)O)CC4)cc3c2C(C)C)cc(C)n1 : is its pIC50 no less than 6?
1 (yes)

Entry Cc1cc(-c2[nH]c3ccc(C4CCN(CC(O)C(C)C)CC4)cc3c2C(C)C)cc(C)n1 (stereo not shown) [Example 849] : is its pIC50 no less than 6?
1 (yes)

Entry CCc1c(-c2ccncc2)[nH]c2ccc(C3CCN(CCNC)CC3)cc12 : is its pIC50 no less than 6?
1 (yes)

Entry CNCCN1CCC(c2ccc3[nH]c(-c4ccnc(C)c4)c(C)c3c2)CC1 : is its pIC50 no less than 6?
1 (yes)

---

target: UniProt:Q9NR97; assay: TLR8 inhibition reporter assay (HEK-Blue cells, SEAP reporter, R848 stimulation); settings: read-out: TLR8 IC50, HEK-Blue cells overexpressing human TLR8, R848 15.9 μM
Returns: string. Value is fulfilled if measured IC50 is below 30 nM, and not fulfilled if it is greater than or equal to it.

Recorded results for 5 molecules are shown here.
Is IC50 of CCc1c(-c2ccnc(C)c2)[nH]c2ccc(C3CCN(C(=O)C4CNC4)CC3)cc12 strictly below 30 nM?
not fulfilled

Is IC50 of Cc1cc(-c2[nH]c3ccc(C4CCN(CC(=O)NC56C[C@@H]7C[C@@H](CC(O)(C7)C5)C6)CC4)cc3c2C(C)C)cc(C)n1 strictly below 30 nM?
fulfilled

Is IC50 of Cc1cc(-c2[nH]c3ccc(C4CCN(C(=O)CN5CCOCC5=O)CC4)cc3c2C(C)C)cc(C)n1 strictly below 30 nM?
not fulfilled

Is IC50 of COCCNCC(=O)N1CCC(c2ccc3[nH]c(-c4cc(C)nc(C)c4)c(C(C)C)c3c2)CC1 strictly below 30 nM?
fulfilled

Is IC50 of Cc1cc(-c2[nH]c3ccc(C4CCN(C5CCCNC5O)CC4)cc3c2C(C)C)ccn1 (centres unmarked) strictly below 30 nM?
fulfilled

Next:
Is IC50 of CCc1c(-c2ccnc(N)c2)[nH]c2ccc([C@@H]3CCNC[C@@H]3F)cc12 strictly below 30 nM?
not fulfilled

Is IC50 of Cc1cc(-c2[nH]c3ccc(C4CCN(Cc5ccn[nH]5)CC4)cc3c2C(C)C)cc(C)n1 strictly below 30 nM?
fulfilled

Is IC50 of Cc1cc(-c2[nH]c3ccc(C4CCNCC4)c(F)c3c2C(C)C)ccn1 strictly below 30 nM?
fulfilled

---

target: human TLR9 (Homo sapiens (Human), UniProt Q9NR96); test: TLR9 inhibition reporter assay (HEK-Blue cells, SEAP reporter, ODN2006 stimulation); settings: read-out: TLR9 IC50, HEK-Blue cells, ODN2006 5 nM;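 also: compounds tested over 0.05 nM to 50 µM, 22 h incubation, inhibition taken as SEAP signal drop from agonist plus DMSO wells toward a known inhibitor control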
pIC50: −log10 of the molar value.
Classify as follows. Reported pIC50 greater than or equal to 6: Satisfied. Reported pIC50 below: Not satisfied.

Recorded results for 3 compounds are shown here.
Entry Cc1cc(-c2[nH]c3ccc(C4CCN(C(=O)C(=O)NCCc5ccncc5)CC4)cc3c2C(C)C)cc(C)n1 [Example 860] : is its pIC50 no less than 6?
Not satisfied

Entry Cc1cc(-c2[nH]c3ccc(C4CCN(C(=O)C(=O)N(C)C)CC4)cc3c2C(C)C)ccn1 [Example 878] : is its pIC50 no less than 6?
Not satisfied

Entry Cc1cc(-c2[nH]c3ccc(C4CCN(C5CCN(CC(C)C)CC5)CC4)cc3c2C)ccn1 [Example 810] : is its pIC50 no less than 6?
Satisfied

Next:
Entry CCc1c(-c2ccnc(C)c2)[nH]c2ccc(C3CCN(CCC(F)(F)F)CC3)cc12 [Example 863] : is its pIC50 no less than 6?
Not satisfied

---

molecular target: human TLR9 (Homo sapiens (Human)); test: TLR9 inhibition reporter assay (HEK-Blue cells, SEAP reporter, ODN2006 stimulation); settings: TLR9 IC50, HEK-Blue cells, ODN2006 5 nM
Value kind: IC50
Quick note: unit goes after the number.

Notebook: pull reported IC50 for human TLR9 (Homo sapiens (Human)), entry Cc1cc(-c2[nH]c3ccc(C4CCN(Cc5cnc[nH]5)CC4)cc3c2C(C)C)c(C)cn1 [Example 824]
0.729 µM

---

molecular target: human TLR7 (Homo sapiens (Human)); test: TLR7 inhibition reporter assay (HEK-Blue cells, SEAP reporter, gardiquimod stimulation); assay type: cell-based; settings: HEK-Blue cells overexpressing human TLR7, gardiquimod 7.5 μM
pIC50: −log10 of the molar value.
Classify as follows. Reported pIC50 greater than or equal to 8: fulfilled. Reported pIC50 below: not fulfilled.

Entry Cc1cc(-c2[nH]c3ccc(C4CCN(CC(=O)NCCC(C)C)CC4)cc3c2C(C)C)cc(C)n1 : is its pIC50 no less than 8?
not fulfilled

Next:
Entry CC(C)c1c(-c2ccnc(C(=O)Nc3nccs3)c2)[nH]c2ccc(C3CCNCC3)cc12 : is its pIC50 no less than 8?
not fulfilled

Entry Cc1cc(-c2[nH]c3ccc(C4CCN(C(=O)C5CCOC(C(C)C)C5)CC4)cc3c2C(C)C)ccn1 (centres unmarked) : is its pIC50 no less than 8?
not fulfilled

Entry Cc1cc(-c2[nH]c3ccc(C4CCN(C(=O)C(C)C)CC4)cc3c2C(C)C)ccn1 : is its pIC50 no less than 8?
not fulfilled

Entry CCc1c(-c2ccnc(OCCN(C)C)c2)[nH]c2ccc(C3CCN(C4CCN(CC(C)C)CC4)CC3)cc12 : is its pIC50 no less than 8?
not fulfilled

Entry Cc1cc(-c2[nH]c3ccc(C4CCN(C(=O)CN5CCCC5C)CC4)cc3c2C(C)C)cc(C)n1 (centres unmarked) : is its pIC50 no less than 8?
fulfilled

---

target: human TLR7 (Homo sapiens (Human), UniProt Q9NYK1); test: TLR7 inhibition reporter assay (HEK-Blue cells, SEAP reporter, gardiquimod stimulation); assay type: cell-based; details: HEK-Blue cells overexpressing human TLR7, gardiquimod 7.5 μM
Sequence (Q9NYK1 27-1049): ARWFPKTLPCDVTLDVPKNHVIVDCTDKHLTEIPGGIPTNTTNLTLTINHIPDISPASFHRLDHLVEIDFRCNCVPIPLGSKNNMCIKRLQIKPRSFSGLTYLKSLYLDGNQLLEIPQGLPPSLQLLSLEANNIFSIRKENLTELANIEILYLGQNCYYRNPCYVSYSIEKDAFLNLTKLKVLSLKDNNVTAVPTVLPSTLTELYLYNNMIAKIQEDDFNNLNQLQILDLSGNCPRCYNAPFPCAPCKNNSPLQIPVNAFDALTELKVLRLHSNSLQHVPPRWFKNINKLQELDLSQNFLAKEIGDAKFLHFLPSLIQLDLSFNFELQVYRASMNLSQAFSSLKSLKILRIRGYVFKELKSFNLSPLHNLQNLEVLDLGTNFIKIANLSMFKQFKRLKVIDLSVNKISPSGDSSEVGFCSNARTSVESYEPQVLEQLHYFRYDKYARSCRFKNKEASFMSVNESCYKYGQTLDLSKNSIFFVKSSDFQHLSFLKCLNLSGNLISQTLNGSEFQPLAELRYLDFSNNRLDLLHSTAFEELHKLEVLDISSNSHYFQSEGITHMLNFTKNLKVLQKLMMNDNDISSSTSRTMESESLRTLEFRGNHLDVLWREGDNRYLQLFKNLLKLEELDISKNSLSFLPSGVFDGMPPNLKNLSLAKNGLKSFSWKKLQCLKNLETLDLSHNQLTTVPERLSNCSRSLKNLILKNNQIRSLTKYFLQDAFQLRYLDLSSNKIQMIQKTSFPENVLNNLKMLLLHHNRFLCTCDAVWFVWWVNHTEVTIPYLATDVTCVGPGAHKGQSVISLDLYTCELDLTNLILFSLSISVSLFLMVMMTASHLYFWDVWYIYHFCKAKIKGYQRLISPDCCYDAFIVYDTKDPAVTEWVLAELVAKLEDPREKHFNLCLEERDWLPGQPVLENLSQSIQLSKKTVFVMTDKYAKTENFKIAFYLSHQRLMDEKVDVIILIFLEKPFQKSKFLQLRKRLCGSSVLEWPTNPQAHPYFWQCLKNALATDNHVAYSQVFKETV
Returns: string. Value is True if measured IC50 is below 7 nM, and False if it is greater than or equal to it.

Recorded results for 5 molecules are shown here.
Is IC50 of Cc1cc(-c2[nH]c3ccc(C4CCN(CC#N)CC4)cc3c2C(C)C)cc(C)n1 strictly below 7 nM?
True

Is IC50 of CCc1c(-c2ccnc(C)c2)[nH]c2ccc(C3CCN(C[C@@H]4CCCN4)CC3)cc12 strictly below 7 nM?
False

Is IC50 of Cc1cc(-c2[nH]c3ccc(C4CCN(Cc5nnn[nH]5)CC4)cc3c2C(C)C)c(C)cn1 strictly below 7 nM?
False

Is IC50 of CC(C)c1c(-c2ccncc2CO)[nH]c2ccc(C3CCNCC3)cc12 strictly below 7 nM?
False

Is IC50 of Cc1cc(-c2[nH]c3ccc(C4CCN(C(C)CF)CC4)cc3c2C(C)C)cc(C)n1 (centres unmarked) strictly below 7 nM?
False

Next:
Is IC50 of COCCOCCN1CCC(c2ccc3[nH]c(-c4cc(C)nc(C)c4)c(C(C)C)c3c2)CC1 strictly below 7 nM?
False

Is IC50 of Cc1cc(-c2[nH]c3ccc(C4CCN(C(=O)CCCN(C)C)CC4)cc3c2C(C)C)cc(C)n1 strictly below 7 nM?
False

Is IC50 of Cc1cc(-c2[nH]c3ccc(C4CCN(CC5(CO)COC5)CC4)cc3c2C(C)C)cc(C)n1 strictly below 7 nM?
True
